# System: Homo sapiens
# EXPERIMENT SUMMARY: AUC (0 to 12 hrs) in healthy human plasma at 200 mg, po twice a day for 8 days by reverse-phase HPLC-MS method
# Type: ADME, organism-based
# Design: time < 12 hr, dose 200 mg, route oral
# PARTICULARS: in vivo
RECORDED METRIC: AUC (ng·h/mL)

INSERT INTO assay_data (query_smiles, observed_value) VALUES
  ('Cc1cc(C#N)cc(C)c1Oc1nc(Nc2ccc(C#N)cc2)nc(N)c1Br', 6220);
